These measurements were taken from ChEMBL document CHEMBL5154908.

biological target: Mitogen-activated protein kinase 14 (Homo sapiens, UniProt Q16539); assay: Displacement of SKF-86002 from human inactivated p38alpha assessed as dissociation half life incubated for 2 hrs by fluorescence based analysis
Sequence (Q16539 whole entry): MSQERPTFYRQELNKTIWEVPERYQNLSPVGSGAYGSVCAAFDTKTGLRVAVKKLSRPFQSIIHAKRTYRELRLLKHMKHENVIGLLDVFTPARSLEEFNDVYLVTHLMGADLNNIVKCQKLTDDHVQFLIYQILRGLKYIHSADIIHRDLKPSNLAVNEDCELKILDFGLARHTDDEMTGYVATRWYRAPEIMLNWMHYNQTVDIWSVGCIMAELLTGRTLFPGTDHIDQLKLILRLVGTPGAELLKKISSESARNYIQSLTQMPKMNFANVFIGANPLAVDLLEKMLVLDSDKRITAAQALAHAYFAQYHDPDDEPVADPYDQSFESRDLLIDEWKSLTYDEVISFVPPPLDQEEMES
What T1/2 was measured for each of the following?

Name the value of T1/2 reported for `C[C@H]1CCCCN1c1nnc2ccc(O[C@@H]3CC[C@H](NC(=O)Nc4cc(C(C)(C)C)nn4-c4cccc(OCCN(C)C)n4)c4ccccc43)cn12` when tested on Mitogen-activated protein kinase 14 (Homo sapiens, UniProt Q16539).
2.9 h

Name the value of T1/2 reported for `CC(C)(C)c1cc(NC(=O)N[C@H]2CC[C@@H](Oc3ccc4nnc(N5CCCCC5)n4c3)c3ccccc32)n(-c2ccc(Cl)c(O)c2)n1` when tested on Mitogen-activated protein kinase 14 (Homo sapiens, UniProt Q16539).
> 16 h

Name the value of T1/2 reported for `CC(C)(C)c1cc(NC(=O)N[C@H]2CC[C@@H](Oc3ccc4nnc(N5CCC(O)CC5)n4c3)c3ccccc32)n(-c2ccc(CO)cc2)n1` when tested on Mitogen-activated protein kinase 14 (Homo sapiens, UniProt Q16539).
> 16 h

Name the value of T1/2 reported for C[C@H]1CCCCC1c1nnc2ccc(O[C@@H]3CC[C@H](NC(=O)Nc4cc(C(C)(C)C)nn4-c4cccc(OCCN5CCOCC5)c4)c4ccccc43)cn12 (stereo partly drawn) when tested on Mitogen-activated protein kinase 14 (Homo sapiens, UniProt Q16539).
> 16 h

Name the value of T1/2 reported for `Cc1ccc(-n2nc(C(C)(C)C)cc2NC(=O)N[C@H]2CC[C@H](Oc3ccc4nnc(C(C)C)n4c3)c3ccccc32)cc1` when tested on Mitogen-activated protein kinase 14 (Homo sapiens, UniProt Q16539).
> 16 h

Name the value of T1/2 reported for `C[C@H]1CCCCN1c1nnc2ccc(O[C@@H]3CC[C@H](NC(=O)Nc4cc(C(C)(C)C)nn4-c4cnn(CCN5CCCOCC5)c4)c4ccccc43)cn12` when tested on Mitogen-activated protein kinase 14 (Homo sapiens, UniProt Q16539).
> 16 h

Name the value of T1/2 reported for `CN(C)CCOc1cc(-n2nc(C(C)(C)C)cc2NC(=O)N[C@H]2CC[C@@H](Oc3ccc4nnc(N5CCCCC5)n4c3)c3ccccc32)ccc1Cl` when tested on Mitogen-activated protein kinase 14 (Homo sapiens, UniProt Q16539).
3.5 h

Name the value of T1/2 reported for C[C@H]1CCCCC1c1nnc2ccc(O[C@@H]3CC[C@H](NC(=O)Nc4cc(C(C)(C)C)nn4-c4cccc(CN5CCN(C)CC5)c4)c4ccccc43)cn12 (stereo partly drawn) when tested on Mitogen-activated protein kinase 14 (Homo sapiens, UniProt Q16539).
> 16 h

Name the value of T1/2 reported for `Cc1ccc(-n2nc(C(C)(C)C)cc2NC(=O)N[C@H]2CC[C@@H](Oc3ccc4nnc(N5CCCCC5)n4c3)c3ccccc32)cc1` when tested on Mitogen-activated protein kinase 14 (Homo sapiens, UniProt Q16539).
> 16 h

Name the value of T1/2 reported for `Cc1ccc(-n2nc(C(C)(C)C)cc2NC(=O)N[C@H]2CC[C@@H](Oc3ccc4nnc(C5CCCCC5)n4c3)c3ccccc32)cc1` when tested on Mitogen-activated protein kinase 14 (Homo sapiens, UniProt Q16539).
> 16 h

Name the value of T1/2 reported for `Cc1ccc(-n2nc(C(C)(C)C)cc2NC(=O)N[C@H]2CC[C@@H](Oc3ccc4nnc(N5CCCC5)n4c3)c3ccccc32)cc1` when tested on Mitogen-activated protein kinase 14 (Homo sapiens, UniProt Q16539).
> 16 h

Name the value of T1/2 reported for `C[C@H]1CCCCN1c1nnc2ccc(O[C@@H]3CC[C@H](NC(=O)Nc4cc(C(C)(C)C)nn4-c4cnn(CCN5CCOCC5)c4)c4ccccc43)cn12` when tested on Mitogen-activated protein kinase 14 (Homo sapiens, UniProt Q16539).
> 16 h

Name the value of T1/2 reported for `Cc1ccc(-n2nc(C(C)(C)C)cc2NC(=O)N[C@H]2CC[C@@H](Oc3ccc4nnc(C5CCCC5)n4c3)c3ccccc32)cc1` when tested on Mitogen-activated protein kinase 14 (Homo sapiens, UniProt Q16539).
> 16 h
